experiment: Half life in simulated gastric fluid at 100 uM at pH 1.2 by HPLC analysis
Type: physicochemical
condition_info: simulated gi fluid, pH 1.2, 100 µM
observation_type: t1/2 (min)
Report as a plain number; the unit min is understood.

CC(C)OC(=O)OC(C)OC(=O)C1=C(S[C@@H]2CN[C@H](C(=O)N(C)C)C2)[C@H](C)[C@@H]2[C@@H]([C@@H](C)O)C(=O)N12 (single isomer, unassigned; diastereomer 1): 8.8
CC(OC(=O)O[C@H]1CCCCc2ccccc21)OC(=O)C1=C(S[C@@H]2CN[C@H](C(=O)N(C)C)C2)[C@H](C)[C@@H]2[C@@H]([C@@H](C)O)C(=O)N12 (mixture of isomers): 18
C[C@@H](O)[C@H]1C(=O)N2C(C(=O)OCOC(=O)O[C@H]3CCCCc4ccccc43)=C(S[C@@H]3CN[C@H](C(=O)N(C)C)C3)[C@H](C)[C@H]12: 9.3
C[C@@H](O)[C@H]1C(=O)N2C(C(=O)OCOC(=O)OC3Cc4ccccc4C3)=C(S[C@@H]3CN[C@H](C(=O)N(C)C)C3)[C@H](C)[C@H]12: 13

Lab note: next compound to report on.
IN: What value of t1/2 has been reported for the following compound? C[C@@H](O)[C@H]1C(=O)N2C(C(=O)OCOC(=O)OC3CCc4ccccc4C3)=C(S[C@@H]3CN[C@H](C(=O)N(C)C)C3)[C@H](C)[C@H]12 (mixture of isomers)
OUT: 14

###

experiment: Half life in Dunkin-Hartley guinea pig plasma at 5 mM by HPLC analysis
Type: ADME, cell-free, Cavia porcellus
condition_info: 5000 µM
So basically: t1/2 at 2 min or higher? That is TRUE. Lower than 2 min? That is FALSE.

C[C@@H](O)[C@H]1C(=O)N2C(C(=O)OCOC(=O)O[C@@H]3CCCCc4ccccc43)=C(S[C@@H]3CN[C@H](C(=O)N(C)C)C3)[C@H](C)[C@H]12: FALSE
C[C@@H](O)[C@H]1C(=O)N2C(C(=O)OCOC(=O)OC3Cc4ccccc4C3)=C(S[C@@H]3CN[C@H](C(=O)N(C)C)C3)[C@H](C)[C@H]12: FALSE
C[C@@H](O)[C@H]1C(=O)N2C(C(=O)OCOC(=O)OC3CCCc4ccccc4C3)=C(S[C@@H]3CN[C@H](C(=O)N(C)C)C3)[C@H](C)[C@H]12 (mixture of isomers): FALSE
CC(C)OC(=O)OC(C)OC(=O)C1=C(S[C@@H]2CN[C@H](C(=O)N(C)C)C2)[C@H](C)[C@@H]2[C@@H]([C@@H](C)O)C(=O)N12 (single isomer, unassigned; diastereomer 1): TRUE
C[C@@H](O)[C@H]1C(=O)N2C(C(=O)OCOC(=O)O[C@H]3CCCCc4ccccc43)=C(S[C@@H]3CN[C@H](C(=O)N(C)C)C3)[C@H](C)[C@H]12: FALSE

Now for a further compound.
IN: Record C[C@@H](O)[C@H]1C(=O)N2C(C(=O)OCOC(=O)OC3CCc4ccccc4C3)=C(S[C@@H]3CN[C@H](C(=O)N(C)C)C3)[C@H](C)[C@H]12 (mixture of isomers) ; criterion: t1/2 no lower than 2 min. Met?
OUT: FALSE

###

# maps each entry to its t1/2
experiment: Half life in MES buffer at 100 uM at pH 6 by HPLC analysis
Type: physicochemical
condition_info: pH 6, 100 µM

# example entries with known answers
C[C@@H](O)[C@H]1C(=O)N2C(C(=O)OCOC(=O)O[C@H]3CCCCc4ccccc43)=C(S[C@@H]3CN[C@H](C(=O)N(C)C)C3)[C@H](C)[C@H]12: 32 min
C[C@@H](O)[C@H]1C(=O)N2C(C(=O)OCOC(=O)O[C@@H]3CCCc4ccccc43)=C(S[C@@H]3CN[C@H](C(=O)N(C)C)C3)[C@H](C)[C@H]12: 0.96 min
CC(=O)N1C[C@@H](SC2=C(C(=O)OCOC(=O)O[C@H]3CCCCc4ccccc43)N3C(=O)[C@H]([C@@H](C)O)[C@H]3[C@H]2C)C[C@H]1C(=O)N(C)C: 28 min
CC(OC(=O)O[C@H]1CCCCc2ccccc21)OC(=O)C1=C(S[C@@H]2CN[C@H](C(=O)N(C)C)C2)[C@H](C)[C@@H]2[C@@H]([C@@H](C)O)C(=O)N12 (mixture of isomers): 80 min

# context switch: different molecule, same t1/2
IN: I am curious: what t1/2 value has been reported for C[C@@H](O)[C@H]1C(=O)N2C(C(=O)OCOC(=O)O[C@H]3CCCc4ccccc43)=C(S[C@@H]3CN[C@H](C(=O)N(C)C)C3)[C@H](C)[C@H]12 ?
OUT: 0.9 min

###

experiment: Lipophilicity, log D of the compound
Format: physicochemical
condition_info: octanol/water
observation_type: logD

IN: Given the compound C[C@@H](O)[C@H]1C(=O)N2C(C(=O)O)=C(S[C@@H]3CN[C@H](C(=O)N(C)C)C3)[C@H](C)[C@H]12 , what is its reported logD?
OUT: < 2.5
